These data points were gathered from PubChem BioAssay.

experiment.summary: CREB reporter modulators under forskolin, primary screen, cell-based, PC12, CRE-LacZ reporter, forskolin-stimulated (AID 1146);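 further: PC12 cells with 6xCRE LacZ reporter stimulated by forskolin 10 µM; beta-galactosidase reporter signal reflecting CREB driven transcription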
condition.context: luminescence, 4.5 h, higher = more signal, called active from +8 up or from −8 down
Binning of z-score into classes: lower = under -0.9, middle = from -0.9 up to -0.07, upper = -0.07 and over

compound: C=C[C@H](OC)[C@@H](OC(=O)Nc1ccc(SC)cc1)c1ccc(O)c(F)c1
answer.label: middle

stdin: Band of NC(=O)NCC#Cc1ccc2c(c1)[C@]1(C(=O)N2)[C@H](c2ccccc2OCCO)N2[C@H](c3ccccc3)[C@H](c3ccccc3)OC(=O)[C@H]2[C@@H]1C(=O)N1CCN(c2ncccn2)CC1 ?
stdout: upper

stdin: Which class holds O=C1C2C=CC(C(O)C#Cc3ccccc3)N(Nc3ccccc3)C2C(=O)N1c1ccccc1 (configuration not stated) ?
stdout: upper

stdin: Band of CCc1cccc(NC(=O)O[C@H]2[C@H](OC(=O)Nc3ccccc3)[C@@H](OC(=O)Nc3ccccc3)[C@@H](OC)O[C@@H]2CO)c1 ?
stdout: lower

stdin: Please report the category associated with C=C(C)[C@@H]1CC=C(C(O)C2C=CC3C(=O)NC(=O)C3N2Nc2ccccn2)CC1 (some centres not stated) , nothing else.
stdout: upper

stdin: Which category does the recorded z-score put C[N+](C)(C)CCCC[C@@H]1NC(=O)[C@H]2C[C@@H](C(=O)NCc3ccc(F)cc3)[C@@H](c3cccc(OCCO)c3)N2C1=O in?
stdout: middle

stdin: Category lookup for the compound COC(=O)C(CC#Cc1ccc2c(c1)[C@]1(C(=O)N2)[C@H](C(=O)N2CCCCCCC2)[C@H]2C(=O)O[C@H](c3ccccc3)[C@H](c3ccccc3)N2[C@@H]1c1ccc(O)cc1)C(=O)OC
stdout: lower

stdin: Consider COC(=O)c1ccc(C#CC(NP(=O)(c2ccccc2)c2ccccc2)c2ccccc2)cc1 (configuration not stated) . To which z-score class does it belong?
stdout: upper

stdin: Please indicate the class for COc1ccc(NN2C(C(O)c3cc(OC)c(OC)c(OC)c3)C=CC3C(=O)N(C4CCCCC4)C(=O)C32)cc1 (configuration not stated) based on its z-score.
stdout: upper

stdin: For the record C=CCC(OC(C)=O)[C@@H]1[C@@H](N(Cc2ccc(-c3ccccc3)cc2)C(=O)c2ccc(-c3ccccc3)cc2)c2cc(OCCCO)ccc2N1C(=O)Cc1ccc(OC)cc1 (some centres not stated) , report the class its z-score corresponds to.
stdout: upper

stdin: Which of the defined bands does the recorded z-score of [N-]=[N+]=NCc1ccccc1C[C@@]1(C(=O)N2CCOCC2)N=C(c2ccc(OCCCO)cc2)O[C@@H]1c1ccccc1N=[N+]=[N-] sit within?
stdout: lower

stdin: Field: class (z-score) — entry: CO[C@H]1COC(=O)[C@H](CCSC)NC(=O)CC=C[C@@H](C)COC(=O)[C@@H](OCc2ccccc2)C=C[C@@H]1C
stdout: middle
